Data provenance: patent US10758609B2

- System: PBMC from FIV-vaccinated cats
- Assay Info: Feline IL2 ELISpot of PBMC from vaccinated cats
- Assay type: cell-based, cat
- Measurement Parameters: FIV epitope peptide

Record Sequence	IL2, frequency of responders
AGLRQSLEQYQVVKQ [FSU4]	— (0%-1.4% (—))
WRMLIDFRVLNKL [FRT3-4]	++ (26%-40% (++))
GSSKEIDMAIVTLKV [FMA2]	++ (26%-40% (++))
AAAPVNQMQQAVMPSA [FNC2]	++++ (>54% (++++))
KFLYTAFAMQELR [FTM4-3]	++++ (>54% (++++))
KFLLDTGADITILN [FPR2]	++++ (>54% (++++))
LLLILCLPTLVDCIRN [FTM8(20)]	— (0%-1.4% (—))
TLEKRPEILIFVNG [FPR1]	— (0%-1.4% (—))
KKKSGKWRMLIDFRV [FRT3-3]	++ (26%-40% (++))

----------
- System: feline CD3^+CD4^+ T cells
- Assay Info: CFSE-based feline CD3+CD4+ T-cell proliferation
- Parameters: species or system cat
- Measurement Parameters: FIV epitope peptide; FIV-vaccinated cats

Record Sequence	CD4, frequency of responders
KFLYTAFAMQELR [FTM4-3]	++ (26%-40% (++))
GSSKEIDMAIVTLKV [FMA2]	++++ (>54% (++++))
LLLILCLPTLVDCIRN [FTM8(20)]	++ (26%-40% (++))
KFLLDTGADITILN [FPR2]	++++ (>54% (++++))
PTDMATLIMAAPGCA [Fp4-3]	++++ (>54% (++++))
NVAVGVGGKSKKF [FMA1]	+++ (41%-54% (+++))
TLEKRPEILIFVNG [FPR1]	++++ (>54% (++++))
KKKSGKWRMLIDFRV [FRT3-3]	++ (26%-40% (++))
AGLRQSLEQYQVVKQ [FSU4]	+++ (41%-54% (+++))

----------
- Test system: feline CD3^+CD8^+ T cells
- Assay Info: CFSE-based feline CD3+CD8+ T-cell proliferation
- Set-up: species or system cat
- Measurement Parameters: FIV peptides; FIV-vaccinated cats
Measured Attribute: CD8^+ T (T-cell proliferation), frequency of responders

Record Sequence	Result
LLLILCLPTLVDCIRN [FTM8(20)]	++++ (>54% (++++))
GSSKEIDMAIVTLKV [FMA2]	++++ (>54% (++++))
AGLRQSLEQYQVVKQ [FSU4]	+++ (40.1%-54% (+++))
KKKSGKWRLIDFRVLNKL [FRT3-3/4]	+++ (40.1%-54% (+++))
GRRYVWCSLPQGWVLSPLIY [FRT7-1/2, overlapping peptide of MAP5]	+++ (40.1%-54% (+++))
AEVKLYLKQSLSIANA [Fp14-3/4, overlapping peptide of MAP3]	+++ (40.1%-54% (+++))
WRMLIDFRVLNKLTDKGA [FRT3-4/5]	— (0%-1.4%(—))
WRMLIDFRVLNKL [FRT3-4]	+++ (40.1%-54% (+++))
KKKSGKWRMLIDFRV [FRT3-3]	+++ (40.1%-54% (+++))
TLEKRPEILIFVNG [FPR1]	++++ (>54% (++++))
KFLLDTGADITILN [FPR2]	++++ (>54% (++++))
AAAPVNQMQQAVMPSA [FNC2]	++++ (>54% (++++))
RAWYLEALGKLAAIKAK [Fp10-2/3, overlapping peptide of MAP6]	— (0%-1.4%(—))
NVAVGVGGKSKKF [FMA1]	++++ (>54% (++++))
